System: HCT-15 colon
PROTOCOL: NCI tumour cell line growth inhibition, 48 h
EXPERIMENTAL_READOUT: TGI (µM)
Give the value in µM but do not write µM after it.

STRUCTURE_NOTATION | SYSTEM_UNDER_TEST | UNIT_LABEL | VAL
C#CCN=C(N/N=C/c1ccc([N+](=O)[O-])o1)NS(=O)(=O)c1cc(C)c(Cl)cc1SCC(N)=O | HCT-15 colon | µM | 56.4
CC[C@@]1(O)C(=O)OCc2c1cc1n(c2=O)Cc2c-1nc1ccc(O)cc1c2CC[Si](C)(C)C | HCT-15 colon | µM | 95

Ask: // returns reported TGI for input O=C1CCCC2=C(N1)C(=O)C=CC2=O
Reply: 62.6
